# Test system: HCT-116
# test details: NCI tumour cell line growth inhibition, 48 h
Active and inactive are the calls of the source. No stated cut-off is given here; in the data, active = GI50 up to about 1.1 µM and inactive = higher.
quantity name: GI50

Sample answers from the record:
{"columns": ["compound", "GI50"],
 "data": [
  ["COc1cc(C(C)c2cc3c(cc2OCCCCCOc2cc4c(cc2C(C)c2cc(OC)c(OC)c(OC)c2)OCO4)OCO3)cc(OC)c1OC (stereo unspecified)", "> 100 µM (inactive)"],
  ["CC1CCC(O)/C=C/C(=O)OC(C)C(O)/C=C/C(=O)O1 (stereo unspecified)", "> 60.5 µM (inactive)"]
]}

Task: What value of measured GI50 is listed for CC1C2CC(CC2(C)O)C1(C)C (stereo unspecified) ?
Output: > 100 µM (inactive)

Task: For `OCCOCn1nc(-c2ccccc2)nc1-c1cnccn1` then?
Output: > 100 µM (inactive)

----------
# System: MDA-N
# test details: NCI tumour cell line growth inhibition, 48 h
Active and inactive are the calls of the source. Rule as the data show it: active = GI50 up to about 1.1 µM and inactive = higher.
Listed below: GI50 values for each entry.

{"columns": ["compound", "GI50"],
 "data": [
  ["CC1(C)N=c2c(ncn2-c2ccccc2)=C(C(N)=O)N1", "> 100 µM (inactive)"],
  ["CCN(CC)CCn1nc(N)c2nc3ccccc3nc21", "> 100 µM (inactive)"],
  ["O=C(O)C(O)C(O)C(O)C(O)c1nc2ccccc2s1 (stereo unspecified)", "17.1 µM (inactive)"]
]}

Task: State its GI50 on MDA-N: COP1(=O)NCc2ncccc2O1 (stereo unspecified)
Output: > 100 µM (inactive)

Task: Field entry: `COc1cc(C(=O)N(C)N(C)C)cc(OC)c1OC`
Output: > 10 µM (inactive)

Task: Same question for CCN1CCC(O)(/C=C/c2ccccc2C)C(C(=O)/C=C/c2ccccc2C)C1 (stereo unspecified) please.
Output: 2.67 µM (inactive)

----------
# System: TK-10
# test details: NCI tumour cell line growth inhibition, 48 h
The source made the active and inactive calls. Rule as the data show it: active = GI50 up to about 1.1 µM and inactive = higher.
quantity name: GI50

For orientation, consider the following solved cases.
{"columns": ["molecule", "GI50"],
 "data": [
  ["Cn1nc(-c2ccccc2)c(C(=O)/C=C/c2ccccc2)c(N2CCCCC2)c1=O", "> 100 µM (inactive)"],
  ["CCOc1ccc(NC(=O)CC2SC(Nc3ccc(C)cc3C)=NC2=O)cc1 (configuration not stated)", "> 100 µM (inactive)"],
  ["O=C1C(Cl)=C(NCCCN2CCOCC2)C(=O)c2c(O)ccc(O)c21", "6.28 µM (inactive)"],
  ["CCOC(=O)C1=C(Nc2ccc(Br)cc2)OC/C1=N\\NC(=O)c1ccccc1O", "> 34.8 µM (inactive)"],
  ["O=C(O)c1cc(C(=O)C(=O)c2cc(C(=O)O)c(O)c3ccccc23)c2ccccc2c1O", "> 100 µM (inactive)"]
]}

Task: Which GI50 value is on record for Cc1c2cc[n+](C)cc2c(C)c2c1[nH]c1ccc(O)cc12 [ELLIPTINIUM ACETATE] ?
Output: 68.2 µM (inactive)

Task: Same question for OC12c3ccccc3C1CCCCCC21OCCCO1 (configuration not stated) please.
Output: > 100 µM (inactive)

Task: Entry to check: `CN1CCN(Cc2nc3c(s2)CCc2sccc2-3)CC1`
Output: 92.7 µM (inactive)

Task: Now the same for `Nc1nc(N)c(-c2ccccc2)c(CCC(=O)Nc2ccc(Cl)cc2)n1`
Output: > 100 µM (inactive)

Task: Entry to check: `O=C(NNc1cn[nH]c(=O)n1)c1cccc2nc3ccccc3nc12`
Output: 24.3 µM (inactive)

Task: Same question for `CCOC(=O)c1c2ccccc2n2c(=O)n(-c3ccccc3)nnc12` please.
Output: > 100 µM (inactive)

Task: Also need `CCOC(=O)C1=C(Cl)c2cccnc2C1=O` , thanks.
Output: > 100 µM (inactive)

The measurements presented in this section are drawn from ChEMBL document CHEMBL1201862.
